Test system: Plasmodium falciparum
procedureSummary: Inhibition of Plasmodium falciparum protein farnesyltransferase at 50 nM by scintillation proximity assay

compound	unitsSymbol	inhibition
Cn1cncc1CN1CC(N(CC2CCN(C(=O)OCC(F)(F)F)CC2)S(=O)(=O)c2ccccn2)Cc2cc(C#N)ccc21 (configuration not stated)	%	91
Cn1cncc1CN1CC(N(CCc2ccccc2C(F)(F)F)S(=O)(=O)c2ccccn2)Cc2cc(C#N)ccc21 (configuration not stated)	%	95
Cn1cnc(S(=O)(=O)N(CCN2CCCC2=O)C2Cc3cc(C#N)ccc3N(Cc3cncn3C)C2)c1 (configuration not stated)	%	99
Cn1cncc1CN1CC(N(CC(N)=O)S(=O)(=O)c2ccccn2)Cc2cc(C#N)ccc21 (configuration not stated)	%	82
COC(=O)NCCCN(C1Cc2cc(C#N)ccc2N(Cc2cncn2C)C1)S(=O)(=O)c1cn(C)cn1 (configuration not stated)	%	100
Cn1cnc(S(=O)(=O)N(Cc2ccccc2F)C2Cc3cc(C#N)ccc3N(Cc3cncn3C)C2)c1 (stereo in doubt; 110)	%	100
Cn1cnc(S(=O)(=O)N(Cc2ccccn2)C2Cc3cc(C#N)ccc3N(Cc3cncn3C)C2)c1 (configuration not stated)	%	98
Cc1nn(-c2ccccc2)nc1CN(C1Cc2cc(C#N)ccc2N(Cc2cncn2C)C1)S(=O)(=O)c1ccccn1 (configuration not stated)	%	97
CN(C)CCCN(C1Cc2cc(C#N)ccc2N(Cc2cncn2C)C1)S(=O)(=O)c1cn(C)cn1 (configuration not stated)	%	34
COC(=O)c1ccc(CN(C2Cc3cc(C#N)ccc3N(Cc3cncn3C)C2)S(=O)(=O)c2cn(C)cn2)cc1 (configuration not stated)	%	62
Cc1c(S(=O)(=O)N(CC2CCN(C(=O)OC(C)(C)C)CC2)C2Cc3cc(C#N)ccc3N(Cc3cncn3C)C2)ncn1C (configuration not stated)	%	98
Cn1cnc(S(=O)(=O)N(Cc2ccccc2F)C2Cc3cc(C#N)ccc3N(Cc3cncn3C)C2)c1 (stereo in doubt; 212)	%	96
Cn1cnc(S(=O)(=O)N(CC2CCNCC2)C2Cc3cc(C#N)ccc3N(Cc3cncn3C)C2)c1 (configuration not stated)	%	65
Cn1cnc(S(=O)(=O)N2CCC(CN(C3Cc4cc(C#N)ccc4N(Cc4cncn4C)C3)S(=O)(=O)c3ccccn3)CC2)c1 (configuration not stated)	%	92
COC(=O)N1CCC(CN(C2Cc3cc(C#N)ccc3N(Cc3cncn3C)C2)S(=O)(=O)c2cn(C)cn2)CC1 (configuration not stated)	%	97
COC(=O)c1ccnc(CN(C2Cc3cc(C#N)ccc3N(Cc3cncn3C)C2)S(=O)(=O)c2cn(C)cn2)c1 (configuration not stated)	%	100
Cn1cncc1CN1CC(N(CCCCON2C(=O)c3ccccc3C2=O)S(=O)(=O)c2ccccn2)Cc2cc(C#N)ccc21 (configuration not stated)	%	84
Cn1cnc(S(=O)(=O)N(Cc2ccc3c(c2)OCCS3(=O)=O)C2Cc3cc(C#N)ccc3N(Cc3cncn3C)C2)c1 (configuration not stated)	%	99
CC(C)S(=O)(=O)N1CCC(CN(C2Cc3cc(C#N)ccc3N(Cc3cncn3C)C2)S(=O)(=O)c2ccccn2)CC1 (configuration not stated)	%	96
Cn1cncc1CN1CC(N(CC2CCN(C(=O)c3ccccc3)CC2)S(=O)(=O)c2ccccn2)Cc2cc(C#N)ccc21 (configuration not stated)	%	94
Cn1cncc1CN1CC(N(CCN2C(=O)c3ccccc3C2=O)S(=O)(=O)c2ccccn2)Cc2cc(C#N)ccc21 (configuration not stated)	%	96
Cn1cncc1CN1CC(N(CC2CCN(C(=O)N3CCCC3)CC2)S(=O)(=O)c2ccccn2)Cc2cc(C#N)ccc21 (configuration not stated)	%	99
Cn1cnc(CN2CC(N(CC(=O)NC(C)(C)C)S(C)(=O)=O)Cc3cc(-c4ccccc4)ccc32)c1 (configuration not stated)	%	2
COc1ccc(S(=O)(=O)N(Cc2ccc(S(C)(=O)=O)cc2)C2Cc3cc(C#N)ccc3N(Cc3cncn3C)C2)cc1 (configuration not stated)	%	97
COc1ccc(S(=O)(=O)N(Cc2ccccc2F)C2Cc3cc(C#N)ccc3N(Cc3cncn3C)C2)cc1 (configuration not stated)	%	66
Cn1cncc1CN1CC(N(CC2CCN(C(=O)C(C)(C)C)CC2)S(=O)(=O)c2ccccn2)Cc2cc(C#N)ccc21 (configuration not stated)	%	99
Cc1ccccc1CN(C1Cc2cc(-c3ccccc3)ccc2N(Cc2cn(C)cn2)C1)S(=O)(=O)c1cn(C)cn1 (configuration not stated)	%	46
Cn1cnc(S(=O)(=O)N(Cc2ccc(S(C)(=O)=O)cc2)C2Cc3cc(C#N)ccc3N(Cc3cncn3C)C2)c1 (configuration not stated)	%	100
Cn1cncc1CN1CC(N(Cc2cccc(-n3cncn3)c2)S(=O)(=O)c2ccccn2)Cc2cc(C#N)ccc21 (configuration not stated)	%	53
Cc1noc(C)c1CN(C1Cc2cc(C#N)ccc2N(Cc2cncn2C)C1)S(=O)(=O)c1ccccn1 (configuration not stated)	%	96
CC(C)COC(=O)N1CCC(CN(C2Cc3cc(C#N)ccc3N(Cc3cncn3C)C2)S(=O)(=O)c2ccccn2)CC1 (configuration not stated)	%	100
Cn1cnc(S(=O)(=O)N(Cc2ccsc2)C2Cc3cc(C#N)ccc3N(Cc3cncn3C)C2)c1 (configuration not stated)	%	99
